- assay notes: yeast display, Sf9 membrane polyspecificity reagent, FACS + sequencing; frameworks hold sequencing errors
recorded endpoint: polyreactivity (PSR sort gate)

Below are worked cases with known answers.
| record sequence | polyreactivity (PSR sort gate) |
| --- | --- |
| QVQLVESGGGLVQAGGSLRLSCAASGSTFPFYAMGWYRQAPGKERELVAAIRYTGNTYYADSVKGRFTISRDNAKNTVYLQMNSLKPEDTAVYYCAADADYWAYGYWGQGTQVTVSS | low polyreactivity |
| QVQIVESRGGLVQAGGSLRLSCAASGSNLHYYTMGWYRQAPGNEREFVAGISWSGGRTYYADSVKGRFTISRDNAKNTVYFQMNSRKPEDTAVYYCNRQARRGFHRYHLYGYGYWGQGTQVTVSS | high polyreactivity |
| QVQLVESGGGLVQAGGSLRLSCAASGFIFLENDMGCYRQAPGKERELVASINSGSDTNYADSVKGRFTISRDNAKNTVYLQMNSLKPEDTAVYYCNASYNGVPARYDYWGQGTQVTVSS | low polyreactivity |
| QVQLVESGGGLFQAGGSLRLSCAASGSTLWRNAMGWYRQATGKERELVAAITRRGGITYYADSVKGRFTISRDNAKNTVYLQMNSLKPEDTAVYYCNAVRSTDGSDYWGQGTQVTVSS | high polyreactivity |
| QVQHVESGGGLVQAGGSLRLSCAASGFIFYIYAMGWYRQAPGKERELVAAITSGGSTYYADSVKGRFTISRDNAKNTVYFQMNSLKPEDTAVFYCNRRSGHVHEYDYWGQGTQVTVSS | low polyreactivity |

For the sequence QVQLVDSGGGLVQAAGSLRLSCAASGRIFYYNAKGCYRQAPVKERELVAAITRSGGSTYYADSVKGRFTSSRDNAKHTVYLQMNSLKPEDTAVYYCAKPDRTGWLDGDYWGQGTQVTVSS , give its reported polyreactivity (PSR sort gate).
low polyreactivity

For the sequence QVQLVESGGGLVQAGGSLRLSCAASGLIFKDYAMGWYRQAPGKERELVAAISSSGGSTYYADSVKGRFTISRDNAKNTVYLQMNSLKPEDTAVYYCAARSFRYYSDYGYWGQGTQVTVSS , give its reported polyreactivity (PSR sort gate).
high polyreactivity

For the sequence QVQLVESGGGLVQAGGSLRLSCAASGRTFRYNTMGWYRQAPGKERELVAAITWSGGRTYYADSVKGRFTISRDNAKNTVYLQMNSLKPEDTAVYYCNADVPYSRSIYGFYYWGQGTQVTVSS , give its reported polyreactivity (PSR sort gate).
high polyreactivity

For the sequence QVQLVESRGGLVQAGGSLRLSCAASGFIFSSYAMGWYRQAHGKERELVAAITSGGSTNYADSVKGRFTISRDNAKNTVYLQMNSLKPEDTAVYYCATVPGGSWFFHWWSTGGDDEYWGQGTQVTVSS , give its reported polyreactivity (PSR sort gate).
low polyreactivity

For the sequence QVQLVESGGGLVQAGGSLRLSCAASGRIFDRNAMGWYRPAPGKERELVAAISRRGGSTYYADSVKGRITISRDNAKNTVYLQMNSLKPEDTAVYYCAARFLYRSVKMDYWGQGTQVTVSS , give its reported polyreactivity (PSR sort gate).
high polyreactivity

For the sequence QVHLVESGGGLVQAGGSLRLSCAASGRIFGRYAMGWYRQAPGKERELVARITTSGGSTSYADSVKGRFTISRDNAKNTVYLQMNSLKPEDTAVYYCAADRARYYSEYDYWGQGTQVTVSS , give its reported polyreactivity (PSR sort gate).
low polyreactivity
